- Experimental System: Cytochrome P450 3A4 (Homo sapiens)
- Test Summary: Cytochrome panel assay with activity outcomes
- Run Parameters: recombinant CYP, pro-luciferin dealkylation, luminescence, p450-cyp3a4; series mostly up to 57.1 µM
The whole screen tested about 16,000 compounds, of which about 5,100 (32%) were called active. Another 25% or so got no clear call; they are omitted. The call rests on the fitted dose curve; in most records, active means well fitted curve in the direction sought with a large enough effect; inconclusive means small, poorly fitted or top-dose-only effect, or effect the other way; inactive means no such curve, though single readings can be large or run the other way. Some of the results follow.
Mark one answer only. Choices: true for active, false for inactive

Worked set:
• Cn1c(=O)cc(OCCCC(=O)Nc2cccnc2)c2ccccc21 = true
• O=C(O)C1CCCCC1C(=O)Nc1ccccc1Cl (stereo unspecified) = false
• COc1ccccc1N1CCN(CCCCNC(=O)c2ccc(-c3ccc(C(C)=O)cc3)cc2)CC1 = false

Query :: Would you mind telling me which call this test gave CCc1ccc(C(=O)COC(=O)C(Cc2ccccc2)NC(=O)C2CCC(C)CC2)cc1 (stereo unspecified) ?
Result :: true

Query :: CC1(C)OC(=O)NC1=O , same question.
Result :: false
